Listed below: IC50 values for each entry.
# Tested on: Ba/F3-KDR-transfected cells
# Procedure summary: Ba/F3-KDR (plus IL3) cellular proliferation assay, counterscreen with 10 ng/ml murine IL3
# Assay type: cell-based
# Measurement context: plus IL3 (10 ng/ml murine IL3, counterscreen); read-out: BAF3-KDR (PLUS IL3) pIC50 (converted)
Value type: IC50

Compound: COc1cc(/N=c2\ccc3ncc(-c4cnn(C)c4)nc3n2CC2CCCOC2)cc(OC)c1 (centres unmarked) [Compound 165]
Assay system: Ba/F3-KDR-transfected cells
Value type: IC50
Result: > 10 µM
//
Compound: COc1cc(OC)c(Cl)c(N(C[C@H]2CCC(=O)N2)c2ccc3ncc(-c4cnn(C)c4)nc3n2)c1Cl [Compound 97]
Assay system: Ba/F3-KDR-transfected cells
Value type: IC50
Result: > 10 µM
//
Compound: CNCCN(c1ccc2ncc(-c3cnn(C)c3)nc2n1)c1c(F)c(OC)cc(OC)c1F [Compound 3]
Assay system: Ba/F3-KDR-transfected cells
Value type: IC50
Result: > 10 µM
//
Compound: COc1cc(OC)c(F)c(N(CC2CCC(=O)N2CCO)c2ccc3ncc(-c4cnn(C)c4)nc3n2)c1 (single isomer, unassigned) [Compound 218]
Assay system: Ba/F3-KDR-transfected cells
Value type: IC50
Result: > 10 µM
//
Compound: COc1cc(OC)c(F)c(N(CC(O)c2cnn(C)c2)c2ccc3ncc(-c4cnn(C)c4)nc3n2)c1 (centres unmarked) [Compound 244]
Assay system: Ba/F3-KDR-transfected cells
Value type: IC50
Result: > 10 µM

----------
Listed below: BAF3-KDR (MIN IL3) pIC50 values for each entry.
# Assay system: Ba/F3-KDR-transfected cells (Homo sapiens, UniProt P35968)
# Construct: BAF3-KDR (MIN IL3) pIC50; other: minus IL3
# Sequence (P35968 whole entry, change not shown): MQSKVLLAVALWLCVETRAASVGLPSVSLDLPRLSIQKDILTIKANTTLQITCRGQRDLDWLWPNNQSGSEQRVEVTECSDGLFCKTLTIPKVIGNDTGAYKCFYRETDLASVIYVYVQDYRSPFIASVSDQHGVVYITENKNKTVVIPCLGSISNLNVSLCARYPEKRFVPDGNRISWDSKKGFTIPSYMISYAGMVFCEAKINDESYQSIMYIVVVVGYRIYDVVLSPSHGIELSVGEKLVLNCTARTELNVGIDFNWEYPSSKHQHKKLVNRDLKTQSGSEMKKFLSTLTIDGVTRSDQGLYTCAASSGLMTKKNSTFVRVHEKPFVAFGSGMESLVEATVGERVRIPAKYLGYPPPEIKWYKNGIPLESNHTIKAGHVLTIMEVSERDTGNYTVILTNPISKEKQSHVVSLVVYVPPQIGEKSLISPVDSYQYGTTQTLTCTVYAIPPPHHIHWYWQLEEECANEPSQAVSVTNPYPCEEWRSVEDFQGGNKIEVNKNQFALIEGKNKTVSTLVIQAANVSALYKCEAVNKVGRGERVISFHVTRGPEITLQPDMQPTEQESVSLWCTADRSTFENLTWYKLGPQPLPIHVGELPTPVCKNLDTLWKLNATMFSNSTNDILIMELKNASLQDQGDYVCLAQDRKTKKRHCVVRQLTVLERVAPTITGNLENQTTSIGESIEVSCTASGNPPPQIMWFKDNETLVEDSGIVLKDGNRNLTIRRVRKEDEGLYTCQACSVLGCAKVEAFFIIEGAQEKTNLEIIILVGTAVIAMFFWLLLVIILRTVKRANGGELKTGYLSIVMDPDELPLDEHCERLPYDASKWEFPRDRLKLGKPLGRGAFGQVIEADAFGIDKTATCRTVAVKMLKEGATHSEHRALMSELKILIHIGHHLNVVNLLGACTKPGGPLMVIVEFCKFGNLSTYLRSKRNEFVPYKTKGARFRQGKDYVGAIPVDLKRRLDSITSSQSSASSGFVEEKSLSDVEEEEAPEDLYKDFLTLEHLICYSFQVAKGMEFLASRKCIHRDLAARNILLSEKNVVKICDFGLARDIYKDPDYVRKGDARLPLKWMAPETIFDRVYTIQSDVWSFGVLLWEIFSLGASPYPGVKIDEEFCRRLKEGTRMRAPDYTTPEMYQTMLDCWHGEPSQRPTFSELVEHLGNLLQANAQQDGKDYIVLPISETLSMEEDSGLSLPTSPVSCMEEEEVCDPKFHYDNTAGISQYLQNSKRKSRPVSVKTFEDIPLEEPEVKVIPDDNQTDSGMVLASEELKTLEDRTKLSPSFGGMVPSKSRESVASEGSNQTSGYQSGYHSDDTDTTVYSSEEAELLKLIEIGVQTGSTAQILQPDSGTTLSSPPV
# Procedure summary: Ba/F3-KDR (minus IL3) cellular proliferation assay, Alamar Blue
# Format: cell-based
# Description: Ba/F3-KDR (Minus IL3 or Plus IL3) (Cellular Proliferation Assay) In a 384 well plate, 100 n1 of compound dilution in DMSO was sprayed before adding 50 μl cell culture medium (phenol red free RPMI-1640, 10% FBS, 2 mM L-Glutamine and 50 μg/ml Gentamycin) containing 20000 cells per well of Ba/F3-KDR-transfected cells. Cells were put in an incubator at 37° C. and 5% CO2. […]

Compound: CNCCN(c1ccc2ncc(-c3cnn(C)c3)nc2n1)c1c(Cl)ccc(OC)c1Cl [Compound 83]
Value prefix: <
BAF3-KDR (MIN IL3) pIC50: 5
//
Compound: COc1cc(OC)cc(N(Cc2nc(OC)cc(OC)n2)c2ccc3ncc(-c4cnn(C)c4)nc3n2)c1 [Compound 174]
Value prefix: <
BAF3-KDR (MIN IL3) pIC50: 5
//
Compound: COc1cc(OC)cc(N(Cc2ncn(CCO)n2)c2ccc3ncc(-c4cnn(C)c4)nc3n2)c1 [Compound 205]
Value prefix: =
BAF3-KDR (MIN IL3) pIC50: 5.45
//
Compound: COc1cc(OC)c(F)c(N(CC(C)(C)O)c2ccc3ncc(-c4cnn(C)c4)nc3n2)c1F [Compound 278]
Value prefix: =
BAF3-KDR (MIN IL3) pIC50: 5.92
//
Compound: COc1cc(/N=c2\ccc3ncc(-c4cnn(C)c4)nc3n2CC(O)COC(C)C)c(F)c(OC)c1 (single isomer, unassigned) [Compound 77]
Value prefix: =
BAF3-KDR (MIN IL3) pIC50: 5.33
//
Compound: COc1cc(OC)cc(N(CCN2CCOCC2)c2ccc3ncc(-c4cnn(C)c4)nc3n2)c1 [Compound 146]
Value prefix: =
BAF3-KDR (MIN IL3) pIC50: 5.28
//
Compound: COc1cc(OC)cc(N(CCS(C)(=O)=O)c2ccc3ncc(-c4cnn(CCS(C)(=O)=O)c4)nc3n2)c1 [Compound 275]
Value prefix: <
BAF3-KDR (MIN IL3) pIC50: 5
//
Compound: COc1cc(OC)c(F)c(N(Cc2cnccn2)c2ccc3ncc(-c4cnn(C)c4)nc3n2)c1F [Compound 10]
Value prefix: =
BAF3-KDR (MIN IL3) pIC50: 6.2
//
Compound: COc1cc(OC)cc(N(CCN2CCCC2=O)c2ccc3ncc(-c4cnn(C)c4)nc3n2)c1 [Compound 151]
Value prefix: <
BAF3-KDR (MIN IL3) pIC50: 5
//
Compound: COc1cc(OC)cc(N(Cc2n[nH]c(=O)o2)c2ccc3ncc(-c4cnn(C)c4)nc3n2)c1 [Compound 229]
Value prefix: <
BAF3-KDR (MIN IL3) pIC50: 5
//
Compound: COc1cc(OC)c(F)c(N(Cc2noc(C)n2)c2ccc3ncc(-c4cnn(C)c4)nc3n2)c1 [Compound 297]
Value prefix: =
BAF3-KDR (MIN IL3) pIC50: 6.08
//
Compound: COc1cc(OC)cc(N(CCCN2CCCC2=O)c2ccc3ncc(-c4cnn(C)c4)nc3n2)c1 [Compound 134]
Value prefix: =
BAF3-KDR (MIN IL3) pIC50: 5.20
//
Compound: COc1cc(/N=c2\ccc3ncc(-c4cnn(C)c4)nc3n2CCN2CCCC2=O)c(F)c(OC)c1 [Compound 156]
Value prefix: =
BAF3-KDR (MIN IL3) pIC50: 5.52
//
Compound: COc1cc(OC)c(F)c(N(CCO)c2ccc3ncc(-c4cnn(CCO)c4)nc3n2)c1 [Compound 233]
Value prefix: =
BAF3-KDR (MIN IL3) pIC50: 5.90
//
Compound: COc1cc(/N=c2\ccc3ncc(-c4cnn(C)c4)nc3n2CC(C)(C)O)cc(OC)c1 [Compound 277]
Value prefix: =
BAF3-KDR (MIN IL3) pIC50: 5.49
